test_system: Genome polyprotein (Dengue virus type 2 (strain 16681-PDK53))
assay_protocol: flavivirus cap methylation enzyme inhibition – biochemical, confirmation dose response, primary screen (AID 588689)
measurement_context: Dengue-2 NS5 methyltransferase capping enzyme assay, at 25 µM, stronger effect = higher value
In all, about 340,000 compounds went through this assay and about 1,000 (0.29%) were called active. Not all results are given here. Results with a measured potency or affinity are listed apart.
Documented inhibition across a set of compounds
reported_metric: inhibition (%)

O=C(O)c1cccc(NS(=O)(=O)c2ccc3c(c2)C(=O)c2ccccc2C3=O)c1 | 16.2
O=C(O)c1ccc(NS(=O)(=O)c2cc(Cl)ccc2Cl)cc1 | -2.78
O=C(O)c1cccc(NS(=O)(=O)c2ccc(Oc3ccc(S(=O)(=O)Nc4cccc(C(=O)O)c4)cc3)cc2)c1 | 13.8
CC(C)N1C(=O)C(=O)N(CC(=O)N2c3ccccc3NC(=O)CC2C)C1=O (stereo not given) | 4.36
COC(=O)c1ccc(CSC2=NC[C@@H]3[C@@H]4C(=O)N(C)C(=O)[C@@H]4[C@](C)(C(=O)OC)N23)cc1 | -0.66

* * *

test_system: Genome polyprotein (Dengue virus type 2 (strain 16681-PDK53)) (UniProt P29991)
assay_protocol: flavivirus cap methylation enzyme inhibition – biochemical, confirmation dose response, primary screen (AID 588689)
measurement_context: Dengue-2 NS5 methyltransferase capping enzyme assay, at 25 µM, stronger effect = higher value
The campaign covered roughly 340,000 compounds. About 1,000 (0.29%) were called active. These entries were drawn from the full list. Potency and affinity values are given separately.
reported_metric: inhibition (%)

O=C(O)c1cccc(-n2cccc2/C=C\[N+](=O)[O-])c1 | 0.75
COc1ccc(NS(=O)(=O)c2csc(C(=O)N3CCCC3)c2)c(OC)c1 | -6.24
COc1cccc(-c2coc3cc4oc(=O)c(CCC(=O)O)c(C)c4cc23)c1 | 9.7
Nc1ccc(-c2ccc(N)c([N+](=O)[O-])c2)cc1[N+](=O)[O-] | -9.54
O=C1CCCc2oc3c(c21)CCCC3 | 0.9
Cc1nnc(SCC(=O)Nc2nnc(SCc3cccc(Br)c3)s2)s1 | 0.64
Nn1c(SCC(=O)Nc2ccc(F)c(F)c2)nnc1C1CCCCC1 | -4.85
O=C(O)c1cccc(-n2cccc2/C=N/O)c1 | 0
CCOC(=O)c1ccccc1NC(=O)c1n[nH]c(=O)c2ccccc12 | 0
CC(CN1CCN(Cc2ccccc2)CC1)OC(=O)c1ccco1 (centres undefined) | 2.3
CC(OC(=O)C1CC1C)C(=O)Nc1ncc(Cl)cc1Cl (centres undefined) | -5.81
Cc1cc(SCC(=O)Nc2ccccc2)n2ncc(-c3ccccc3)c2n1 | -3.11
Cc1c(CC(=O)O)c(=O)oc2c(C)c(OCc3ccc(F)cc3Cl)ccc12 | 1.96
Cc1ccc([C@@H]2CC=C(C(=O)O)[C@H](c3ccccc3)N2S(=O)(=O)c2ccccc2C)cc1 | 11.1
CC1(C)OC(=O)C(=Cc2ccc(-c3ccc(Cl)c(C(=O)O)c3)o2)C(=O)O1 | -35.6
O=C(O)CC(NC(=O)C12CC3CC(CC(C3)C1)C2)c1cccc([N+](=O)[O-])c1 (centres undefined) | 4.1
Cc1c(CCC(=O)O)c(=O)oc2cc3occ(-c4ccc(Br)cc4)c3cc12 | 17.7
COc1ccccc1COc1ccc2c(C)c(CCC(=O)O)c(=O)oc2c1C | 7.18
CC(C)N1C(=O)S/C(=C\c2ccc(-c3ccc(Cl)c(C(=O)O)c3)o2)C1=O | 9.54
CCOP(=O)(OCC)c1nc(/C=C/c2ccccc2)oc1NCc1ccc(OC)cc1 | -2.05
CCCCC/C=C/C1=CC(=O)C[C@H](c2ccc(OC)cc2)C1 | -0.8
O=[N+]([O-])c1ccccc1N=Nc1ccc(O)cc1 | 0
Cc1ccc(NC(=O)c2ccccc2NS(=O)(=O)c2ccc(Cl)s2)cc1 | -0.66
CN(C)C(=O)c1ccc(NC(=O)c2cccc(S(=O)(=O)N3CCCc4ccccc43)c2)cc1 | 4.32
CC(=O)C1=C(O)C(=O)N(c2cc(C(C)(C)C)on2)C1c1ccc(Br)cc1 (centres undefined) | 13.1
O=C(O)c1ccc2nc(-c3ccccc3)c(-c3ccccc3)nc2c1 | -2.57
CC(=O)C1=C(O)C(=O)N(Cc2cccnc2)C1c1ccc(C(C)C)cc1 (centres undefined) | -5.44
CC(C)(C)c1ccc(-c2nc(C=O)c3ccccn23)cc1 | 0
Cc1c(CC(=O)O)c(=O)oc2c(C)c3occ(-c4ccc(Br)cc4)c3cc12 | 26.1
CCOc1nc(C)ccc1-c1noc(C)n1 | 0
CC(=O)c1cc2c(cc1F)C(C)(C)CCC2(C)C | 5.57
CC1/C(=N/O)CC(c2ccccc2)NC1c1ccccc1 (centres undefined) | 3.42
Cc1ccccc1CSCCNC(=O)COc1ccc(Cl)cc1 | -3.24
CCn1c(SCC(=O)NC)nnc1C(C)C | 4.79
Cc1ccc([C@H]2C(C(=O)O)=CC[C@@H](c3ccc(C)cc3)N2S(=O)(=O)c2ccccc2C)cc1 | 13.7
C=CCNC(=S)NNC(=O)c1csc(C)c1CC | 2.43
CC(C)C(NC(=O)C1CCC(C(C)(C)C)CC1)C(=O)NCCc1ccc(S(N)(=O)=O)cc1 (centres undefined) | 9.25
O=C(NCc1cccs1)c1nc2c(nnn2Cc2ccc(F)cc2)c(=O)[nH]1 | -3.42
O=C(c1cccc(S(=O)(=O)Nc2ccc(Br)cc2)c1)N1CCCC1 | -8.06
Nc1ccc(N=Nc2ccccc2)cc1[N+](=O)[O-] | -3.11
O=C(CCC(=O)c1ccc(F)cc1)Nc1cc(Cl)cc(Cl)c1 | -2.06
C=C(C1=CCN(S(=O)C(C)(C)C)[C@@H]1CCO)c1ccccc1 (some centres undefined) | 0.33
COC(=O)[C@@H](NC(=O)/C=C/c1ccc(OC)cc1)C(C)C | -9.35
O=C(O)COc1ccc(/C=N/NC(=O)c2cn(-c3ccccc3)nc2-c2ccccc2)cc1 | 5.65

* * *

test_system: Genome polyprotein (Dengue virus type 2 (strain 16681-PDK53))
assay_protocol: flavivirus cap methylation enzyme inhibition – biochemical, confirmation dose response, primary screen (AID 588689)
measurement_context: Dengue-2 NS5 methyltransferase capping enzyme assay, at 25 µM, stronger effect = higher value
The campaign covered roughly 340,000 compounds. About 1,000 (0.29%) were called active. These entries were drawn from the full list. Results with a measured potency or affinity are listed apart.
reported_metric: inhibition (%)

CN(C)S(=O)(=O)c1ccc(C(=O)OCC(=O)c2ccc(OC(F)F)cc2OC(F)F)cc1 | 2.08
CC1CN(C2=NC(=O)/C(=C3/C(=O)N(Cc4ccc(F)cc4)c4ccccc43)S2)CC(C)O1 (centres undefined) | -3.91
COC(=O)Cn1c(=NC(=O)c2ccc(Cl)s2)sc2cc(C)ccc21 | 4.02
O=C(c1cccnc1)N1CCN(CCCc2ccccc2)CC1 | -7.9
CCOC(=O)C1=C(C)N=c2s/c(=C3/C(=O)Nc4ccccc43)c(=O)n2C1c1ccc(C)cc1 (centres undefined) | 22.8
CN1C(=O)/C(=C2\SC(=S)N(CCCCCC(=O)O)C2=O)c2ccccc21 | -1.55
COc1ccc([C@H]2N[C@]3(CCCN(Cc4ccc(Cl)cc4)C3=O)[C@H]3C(=O)N(Cc4ccccc4)C(=O)[C@@H]23)cc1 | -3.98
Cc1cccc(C)c1N(CC(=O)NCc1ccco1)C(=O)CNS(=O)(=O)c1ccc(F)cc1 | -7.48
NN1C(=O)/C(=C2/Sc3ccccc3N2CCCS(=O)(=O)O)SC1=S | -12.9

* * *

// reported inhibition for each item listed
test_system: Genome polyprotein (Dengue virus type 2 (strain 16681-PDK53)) (UniProt P29991)
assay_protocol: flavivirus cap methylation enzyme inhibition – biochemical, confirmation dose response, primary screen (AID 588689)
measurement_context: Dengue-2 NS5 methyltransferase capping enzyme assay, at 25 µM, stronger effect = higher value
In all, about 340,000 compounds went through this assay and about 1,000 (0.29%) were called active. These entries were drawn from the full list. Measured potencies and affinities stand elsewhere.
reported_metric: inhibition (%)

O=C(O)/C=C/C(=O)Nc1ccc(C(=O)c2ccccc2)cc1 | -4.59
COc1cccc(N=Cc2nc(-c3ccccc3)oc2OC(C)=O)c1 | -7.76
O=C(O)c1cc(NCc2c(F)cccc2Cl)ccc1N1CCOCC1 | -2.05
CC(=O)c1ccc(C(=O)N(C)C2CCCN(Cc3ccccc3F)C2)s1 (stereo not drawn) | -12.1
Cc1nc2ccccc2c(=O)n1NC(=O)c1ccc(C(C)(C)C)cc1 | -7.84
Cc1nonc1CN(C)C(=O)CC1C(=O)NCCN1Cc1c(F)cccc1Cl (stereo not drawn) | 0
CCC(=O)Nc1ccc2ccccc2c1 | -7.67
CCn1nc(C(=O)Nc2cccc(S(=O)(=O)N3CCCC3)c2)c2ccccc2c1=O | -8.08
CCc1c(C)c2nncn2[nH]c1=O | -3.9
O=C(O)/C=C/C(=O)Nc1ccc(-c2ccccc2)cc1 | -12.6
Cc1ccc(CNC(=O)C2CCC(=O)N2C(C)C)cc1 (stereo not drawn) | -1.99
CCCCOC(=O)C1=C(C)NC(=O)NC1c1ccc(OC)cc1 (stereo not drawn) | -0.39
CCc1ccc(OCC(O)CN2CCN(c3ccc(OC)cc3)CC2)cc1 (stereo not drawn) | -3.27
C=CCn1c(SCC(=O)/C(C#N)=C(\C)N)nnc1C1CCCCC1 | -2.77
C=CC[C@@H](CC(=O)N[C@@H](CO)Cc1ccccc1)C(=O)NC[C@@H](OC(=O)[C@@H](CC=C)Cc1ccc(F)cc1)c1ccccc1 | -8.18
CC(Oc1ccccc1)C(=O)NNS(=O)(=O)c1ccc([N+](=O)[O-])cc1 (stereo not drawn) | -1.92
O=C(CCCOc1ccc(Cl)cc1Cl)N/N=C/c1ccccc1 | -4.44
Cc1cc2cc(CNC(=O)Nc3cccc(Cl)c3)ccc2n1C | 22.2
COc1ccc(N=Cc2nc(-c3ccccc3)oc2OC(C)=O)cc1 | -15.3
COc1ccc(C(C)=O)cc1CSc1nc2cc(C(=O)O)ccc2c(=O)n1Cc1ccccc1 | 4.46
O=[N+]([O-])c1cc(Br)c(Nc2ccccc2)c([N+](=O)[O-])c1 | 5.88
NS(=O)(=O)c1ccc(NCc2c(F)cccc2Cl)cc1 | 4.17
Cc1ccc(-c2cnc3ccccc3n2)cc1C | -6.51
